Listed here: items and their measured combination Emax.
Test system: GA-10 (Burkitt's Lymphoma)
EXPERIMENT DESCRIPTION: combination Emax (second highest fraction inhibited in the dose matrix, 72 h); higher = more inhibition; extreme values may be limits of the assay
MEASURED QUANTITY: combination Emax

COMPOUND: COc1nnc2ccc(N3CCC(c4ccc(OCCN5CCN(C)C(=O)[C@H]5C)cc4)CC3)nn12 [AZD5153] + CN(CC[C@H](CSC1=CC=CC=C1)NC2=C(C=C(C=C2)S(=O)(=O)NC(=O)C3=CC=C(C=C3)N4CCC(CC4)[C@H](C5=CC=CC=C5C6=CC=C(C=C6)Cl)O)S(=O)(=O)C(F)(F)F)CCO [AZD4320] (first compound max 1 µM, 7x7, partner max 1 µM)
DATA VALUE: 0.672
--
COMPOUND: C=CCn1c(=O)c2cnc(Nc3ccc(N4CCN(C)CC4)cc3)nc2n1-c1cccc(C(C)(C)O)n1 [AZD1775] + O=C(c1cc(Cc2n[nH]c(=O)c3ccccc23)ccc1F)N1CCN(C(=O)C2CC2)CC1 [Olaparib] (first compound max 1 µM, partner max 10 µM)
DATA VALUE: 0.981
--
COMPOUND: Cc1c2c(nn1C)CSCc1cc(n(C)n1)CSc1cc(c3ccccc3c1)OCCCc1c(C(=O)O)n(C)c3c-2c(Cl)ccc13 [AZD5991] + Cc1cc2ncnn2cc1Nc1ncc2c(n1)n(C1CCOCC1)c(=O)n2C [AZD7648] (first compound max 1 µM, 7x7, partner max 10 µM)
DATA VALUE: 0.851
--
COMPOUND: COc1cccc(OCCCN)c1-c1cc(Nc2cnc(C#N)cn2)n[nH]1 [Prexasertib] + C=CCn1c(=O)c2cnc(Nc3ccc(N4CCN(C)CC4)cc3)nc2n1-c1cccc(C(C)(C)O)n1 [AZD1775] (first compound max 1 µM, partner max 1 µM)
DATA VALUE: 1

###

Listed here: items and their measured combination Emax.
System: HCC1428 (Breast Carcinoma)
EXPERIMENT DESCRIPTION: combination Emax (second highest fraction inhibited in the dose matrix, 72 h); higher = more inhibition; extreme values may be limits of the assay

MOLECULE: Cc1c2c(nn1C)CSCc1cc(n(C)n1)CSc1cc(c3ccccc3c1)OCCCc1c(C(=O)O)n(C)c3c-2c(Cl)ccc13 [AZD5991] + CN(C)CCCOc1ccc(-c2ccc3ncc4c(c3c2)n(C2CCOCC2)c(=O)n4C)cn1 [AZD0156] (first compound max 1 µM, 7x7, partner max 1 µM)
combination Emax: 0.961
//
MOLECULE: CCN(CCO)CCCOc1ccc2c(Nc3cc(CC(=O)Nc4cccc(F)c4)[nH]n3)ncnc2c1 [AZD2811] + C=CCn1c(=O)c2cnc(Nc3ccc(N4CCN(C)CC4)cc3)nc2n1-c1cccc(C(C)(C)O)n1 [AZD1775] (first compound max 1 µM, partner max 1 µM)
combination Emax: 0.158
//
MOLECULE: NC1(C(=O)N[C@@H](CCO)c2ccc(Cl)cc2)CCN(c2ncnc3[nH]ccc23)CC1 [Capivasertib] + CCN(CCO)CCCOc1ccc2c(Nc3cc(CC(=O)Nc4cccc(F)c4)[nH]n3)ncnc2c1 [AZD2811] (first compound max 10 µM, 7x7, partner max 1 µM)
combination Emax: 0.465
//
MOLECULE: NC1(C(=O)N[C@@H](CCO)c2ccc(Cl)cc2)CCN(c2ncnc3[nH]ccc23)CC1 [Capivasertib] + Cn1cnc2c(F)c(Nc3ccc(Br)cc3Cl)c(C(=O)NOCCO)cc21 [Selumetinib] (first compound max 10 µM, 7x7, partner max 10 µM)
combination Emax: 0.171

###

System: MDA-MB-436 (Breast Carcinoma)
EXPERIMENT DESCRIPTION: Bliss excess, mean over the matrix (fraction); higher = more synergy
MEASURED QUANTITY: Bliss excess

MOLECULE: COc1cc2ncnc(Nc3ccc(F)c(Cl)c3)c2cc1OCCCN1CCOCC1 [Gefitinib] + CC(C)n1c(=O)n(C)c2cnc3cc(F)c(-c4ccc(OCCCN5CCCCC5)nc4)cc3c21 [AZD1390] (first compound max 10 µM, 7x7, partner max 0.3 µM)
MEASURED QUANTITY: Bliss excess
DATA VALUE: -0.0402
--
MOLECULE: COc1cccc(OCCCN)c1-c1cc(Nc2cnc(C#N)cn2)n[nH]1 [Prexasertib] + O=C(c1cc(Cc2n[nH]c(=O)c3ccccc23)ccc1F)N1CCN(C(=O)C2CC2)CC1 [Olaparib] (first compound max 1 µM, 7x7, partner max 10 µM)
MEASURED QUANTITY: Bliss excess
DATA VALUE: 0.0035

###

Listed here: items and their measured Bliss excess.
System: LU-165 (Small Cell Lung Carcinoma)
EXPERIMENT DESCRIPTION: Bliss excess, mean over the matrix (fraction); higher = more synergy
MEASURED QUANTITY: Bliss excess

COMPOUND: CC(=O)c1c(C)c2cnc(Nc3ccc(N4CCNCC4)cn3)nc2n(C2CCCC2)c1=O [Palbociclib] + Cc1c2c(nn1C)CSCc1cc(n(C)n1)CSc1cc(c3ccccc3c1)OCCCc1c(C(=O)O)n(C)c3c-2c(Cl)ccc13 [AZD5991] (first compound max 10 µM, 7x7, partner max 1 µM)
MEASURED QUANTITY: Bliss excess
DATA VALUE: -0.0347
--
COMPOUND: COc1cccc(OCCCN)c1-c1cc(Nc2cnc(C#N)cn2)n[nH]1 [Prexasertib] + C[C@@H]1COCCN1C2=NC(=NC(=C2)C3(CC3)[S@](=N)(=O)C)C4=C5C=CNC5=NC=C4 [AZD6738] (first compound max 1 µM, 7x7, partner max 10 µM)
MEASURED QUANTITY: Bliss excess
DATA VALUE: -0.0402
--
COMPOUND: Cc1cc2ncnn2cc1Nc1ncc2c(n1)n(C1CCOCC1)c(=O)n2C [AZD7648] + CN(C)CCCOc1ccc(-c2ccc3ncc4c(c3c2)n(C2CCOCC2)c(=O)n4C)cn1 [AZD0156] (first compound max 10 µM, 7x7, partner max 1 µM)
MEASURED QUANTITY: Bliss excess
DATA VALUE: 0.0071
--
COMPOUND: COc1cccc(OCCCN)c1-c1cc(Nc2cnc(C#N)cn2)n[nH]1 [Prexasertib] + CN(C)CCCOc1ccc(-c2ccc3ncc4c(c3c2)n(C2CCOCC2)c(=O)n4C)cn1 [AZD0156] (first compound max 1 µM, 7x7, partner max 1 µM)
MEASURED QUANTITY: Bliss excess
DATA VALUE: -0.0723
--
COMPOUND: Cc1c2c(nn1C)CSCc1cc(n(C)n1)CSc1cc(c3ccccc3c1)OCCCc1c(C(=O)O)n(C)c3c-2c(Cl)ccc13 [AZD5991] + C[C@@H]1COCCN1C2=NC(=NC(=C2)C3(CC3)[S@](=N)(=O)C)C4=C5C=CNC5=NC=C4 [AZD6738] (first compound max 1 µM, 7x7, partner max 10 µM)
MEASURED QUANTITY: Bliss excess
DATA VALUE: 0.0012
--
COMPOUND: Cc1cc2ncnn2cc1Nc1ncc2c(n1)n(C1CCOCC1)c(=O)n2C [AZD7648] + O=C(c1cc(Cc2n[nH]c(=O)c3ccccc23)ccc1F)N1CCN(C(=O)C2CC2)CC1 [Olaparib] (first compound max 10 µM, 7x7, partner max 10 µM)
MEASURED QUANTITY: Bliss excess
DATA VALUE: -0.102
--
COMPOUND: O=C(c1cc(Cc2n[nH]c(=O)c3ccccc23)ccc1F)N1CCN(C(=O)C2CC2)CC1 [Olaparib] + Cc1c2c(nn1C)CSCc1cc(n(C)n1)CSc1cc(c3ccccc3c1)OCCCc1c(C(=O)O)n(C)c3c-2c(Cl)ccc13 [AZD5991] (first compound max 10 µM, 7x7, partner max 1 µM)
MEASURED QUANTITY: Bliss excess
DATA VALUE: -0.0374

###

Listed here: items and their measured Bliss excess.
Test system: NCI-H2228 (Lung Adenocarcinoma)
EXPERIMENT DESCRIPTION: Bliss excess, mean over the matrix (fraction); higher = more synergy

MOLECULE: Cc1c2c(nn1C)CSCc1cc(n(C)n1)CSc1cc(c3ccccc3c1)OCCCc1c(C(=O)O)n(C)c3c-2c(Cl)ccc13 [AZD5991] + C[C@@H](Nc1cc(F)cc(F)c1)c1cc(C(=O)N(C)C)cc2c(=O)cc(N3CCOCC3)oc12 [AZD8186] (first compound max 1 µM, 7x7, partner max 3 µM)
Bliss excess: -0.0361
//
MOLECULE: C[C@@H]1COCCN1c1cc(C2([S@](C)(=N)=O)CC2)nc(-c2ccnc3[nH]ccc23)n1 [AZD6738] + O=C(c1cc(Cc2n[nH]c(=O)c3ccccc23)ccc1F)N1CCN(C(=O)C2CC2)CC1 [Olaparib] (first compound max 10 µM, 7x7, partner max 10 µM)
Bliss excess: -0.0305
//
MOLECULE: CN(C)CCCOc1ccc(-c2ccc3ncc4c(c3c2)n(C2CCOCC2)c(=O)n4C)cn1 [AZD0156] + CCN(CCO)CCCOc1ccc2c(Nc3cc(CC(=O)Nc4cccc(F)c4)[nH]n3)ncnc2c1 [AZD2811] (first compound max 1 µM, 7x7, partner max 1 µM)
Bliss excess: -0.0223
//
MOLECULE: CC1(C)CCC(CN2CCN(c3ccc(C(=O)NS(=O)(=O)c4ccc(NCC5CCOCC5)c([N+](=O)[O-])c4)c(Oc4cnc5[nH]ccc5c4)c3)CC2)=C(c2ccc(Cl)cc2)C1 [Venetoclax] + C[C@@H]1COCCN1C2=NC(=NC(=C2)C3(CC3)[S@](=N)(=O)C)C4=C5C=CNC5=NC=C4 [AZD6738] (first compound max 1 µM, 7x7, partner max 10 µM)
Bliss excess: -0.0361
//
MOLECULE: Cc1c2c(nn1C)CSCc1cc(n(C)n1)CSc1cc(c3ccccc3c1)OCCCc1c(C(=O)O)n(C)c3c-2c(Cl)ccc13 [AZD5991] + Cn1cnc2c(F)c(Nc3ccc(Br)cc3Cl)c(C(=O)NOCCO)cc21 [Selumetinib] (first compound max 1 µM, 7x7, partner max 3 µM)
Bliss excess: 0.0038
//
MOLECULE: CC1(C)CCC(CN2CCN(c3ccc(C(=O)NS(=O)(=O)c4ccc(NCC5CCOCC5)c([N+](=O)[O-])c4)c(Oc4cnc5[nH]ccc5c4)c3)CC2)=C(c2ccc(Cl)cc2)C1 [Venetoclax] + Cn1cnc2c(F)c(Nc3ccc(Br)cc3Cl)c(C(=O)NOCCO)cc21 [Selumetinib] (first compound max 1 µM, 7x7, partner max 3 µM)
Bliss excess: -0.0135
//
MOLECULE: Cc1c2c(nn1C)CSCc1cc(n(C)n1)CSc1cc(c3ccccc3c1)OCCCc1c(C(=O)O)n(C)c3c-2c(Cl)ccc13 [AZD5991] + Cc1cc2ncnn2cc1Nc1ncc2c(n1)n(C1CCOCC1)c(=O)n2C [AZD7648] (first compound max 1 µM, 7x7, partner max 10 µM)
Bliss excess: -0.0413
